Molecular target: DLAR D2 (Drosophila melanogaster, UniProt P16621)
Construct: DLAR 1728-2029; His tag (pET-15b or pET-22b); made in house; host or cells: E. coli BL21(DE3)
Test: PNC binding by fluorescence quenching, DLAR D2
Conditions: 5.0 µM protein, 25 mM citrate pH 6.5; fluorescence quenching 350 nm; single site model
Counter-ions that a name gives are not always drawn.
measure: Kd (µM)
Quick note: give the figure in µM, leave out the unit.

Problem: Read off the recorded Kd for O=[N+]([O-])c1ccc(O)c(OS(=O)(=O)O)c1 [PNC, 2-hydroxy-5-nitrophenyl sulfate]
Result: 214

###

Molecular target: DLAR D1D2 (Drosophila melanogaster, UniProt P16621)
Construct: DLAR 1448-2029; His tag (pET-15b or pET-22b); made in house; host or cells: E. coli BL21(DE3)
Sequence (P16621 1448-2029): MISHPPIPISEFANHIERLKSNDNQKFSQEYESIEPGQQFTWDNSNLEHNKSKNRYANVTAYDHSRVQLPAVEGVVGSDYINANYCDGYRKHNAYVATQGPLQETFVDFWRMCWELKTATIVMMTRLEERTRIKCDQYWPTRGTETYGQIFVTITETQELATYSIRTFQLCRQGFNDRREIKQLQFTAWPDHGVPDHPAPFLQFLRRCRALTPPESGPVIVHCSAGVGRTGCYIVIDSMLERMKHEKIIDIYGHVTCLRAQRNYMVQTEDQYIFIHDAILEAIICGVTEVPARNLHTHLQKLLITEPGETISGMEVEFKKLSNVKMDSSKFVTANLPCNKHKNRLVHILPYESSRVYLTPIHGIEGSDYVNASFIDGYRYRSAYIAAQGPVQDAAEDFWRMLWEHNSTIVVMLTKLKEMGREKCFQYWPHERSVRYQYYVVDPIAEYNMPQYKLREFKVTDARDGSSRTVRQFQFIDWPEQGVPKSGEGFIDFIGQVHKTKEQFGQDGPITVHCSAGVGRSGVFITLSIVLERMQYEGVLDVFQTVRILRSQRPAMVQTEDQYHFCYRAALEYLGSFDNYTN
Assay: PNC binding by fluorescence quenching, DLAR D1D2
Details: 5.0 µM protein, 25 mM citrate pH 6.5; fluorescence quenching 350 nm; independent two site model; read-out: Kd2
Structures can show the parent of a compound that is named as a salt.
measure: pKd
Friendly reminder that pKd comes from taking -log10 of the concentration in mol/L.

Problem: Read off the recorded pKd for O=[N+]([O-])c1ccc(O)c(OS(=O)(=O)O)c1 [PNC, 2-hydroxy-5-nitrophenyl sulfate]
Result: 3.76
